Every entry's value here was drawn from FireProtDB (doi:10.1006/jmbi.1995.0599).

B1: Lysozyme C, P61626 (parent)
chain: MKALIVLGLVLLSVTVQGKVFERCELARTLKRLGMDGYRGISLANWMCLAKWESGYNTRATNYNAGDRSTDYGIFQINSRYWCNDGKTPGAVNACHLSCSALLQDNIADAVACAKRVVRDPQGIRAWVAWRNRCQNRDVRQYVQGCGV

Variants of: B1
Measurement Conditions: Homo sapiens; pH 2.7; Thermal; DSC; glycine 0.05 M; reversible: yes; structure 1LZ1; whole UniProt chain shown
Each record here notes measured change of melting temperature, mutant - wild type (higher = more stable).
Readout Label: change of melting temperature, mutant - wild type (higher = more stable) (°C)

variant_notation=I74V value=-3.6
variant_notation=I41V value=-1.1
variant_notation=I77V value=-3.4
variant_notation=I124V value=-2.2
variant_notation=I107V value=-1.4
